The reported numbers originate from patent US5021408A.

# Protocol Text: Systemic (thymolytic) activity, thymus weight reduction after oral administration
# Assay type: in vivo, rat (Wistar)
# Test Settings: rat; young Wistar rats, oral, daily for four consecutive days; 50% thymus weight reduction vs controls; read-out: Systemic activity ED50
Quantity Kind: ED50 at 96 h (mg/kg)
Give your result in mg/kg as a bare value.

CC(=O)OCC(=O)[C@@]1(O)CC[C@H]2[C@@H]3CCC4=CC(=O)CC[C@]4(C)[C@H]3[C@@H](O)C[C@@]21C [hydrocortisone-21-acetate]; 14

Please report ED50 at 96 h for the following molecule: CCCC(=O)O[C@]1(C(=O)COC(=O)CC)CC[C@H]2[C@@H]3CCC4=CC(=O)CC[C@]4(C)[C@H]3[C@@H](O)C[C@@]21C [Hydrocortisone-21-propionate-17-butyrate, hydrocortisone-21-propionate-17-butyrate]
7.2

###

# Test system: inflammation of the ear in the mouse
# Protocol Text: Local anti-inflammatory activity, croton oil ear inflammation (method derived from Tonelli)
# Type: in vivo
# Test Settings: relative to hydrocortisone-21-acetate = 1
# Anti-inflammatory activity: Activity/ref. 21 act. hydro per record follows
Respond using a number only.

CCC(=O)O[C@]1(C(=O)CSC(=O)CC)[C@@H](C)C[C@H]2[C@@H]3CCC4=CC(=O)C=C[C@]4(C)[C@@]3(F)[C@@H](O)C[C@@]21C; 231
CCCC(=O)O[C@]1(C(=O)COC(=O)CC)CC[C@H]2[C@@H]3CCC4=CC(=O)CC[C@]4(C)[C@H]3[C@@H](O)C[C@@]21C [Hydrocortisone-21-propionate-17-butyrate, hydrocortisone-21-propionate-17-butyrate]; 63.8

Fill in reported Anti-inflammatory activity: Activity/ref. 21 act. hydro for this entry: CCCCC(=O)O[C@]1(C(=O)CSC(C)=O)CC[C@H]2[C@@H]3CCC4=CC(=O)C=C[C@]4(C)[C@H]3[C@@H](O)C[C@@]21C [Prednisolone-21-thioacetate-17-valerate]
37.5

Entry CCCC(=O)O[C@]1(C(=O)CSC(=O)CC)CC[C@H]2[C@@H]3CCC4=CC(=O)CC[C@]4(C)[C@H]3[C@@H](O)C[C@@]21C needs its Anti-inflammatory activity: Activity/ref. 21 act. hydro filled in; supply it.
14.3

###

// reported Systemic activity: Activity/ref. 21 act. hydro for each item listed
# Tested on: thymus weight
# Protocol Text: Systemic (thymolytic) activity, thymus weight reduction after oral administration
# Format: in vivo, rat (Wistar)
# Test Settings: rat, in vivo, 5760 min

Example entries and their recorded answers appear below.
CCC(=O)O[C@]1(C(=O)CSC(=O)CC)[C@@H](C)C[C@H]2[C@@H]3CCC4=CC(=O)C=C[C@]4(C)[C@@]3(Cl)[C@@H](O)C[C@@]21C; 0.74
CCCCC(=O)O[C@]1(C(=O)CSC(C)=O)CC[C@H]2[C@@H]3CCC4=CC(=O)C=C[C@]4(C)[C@H]3[C@@H](O)C[C@@]21C [Prednisolone-21-thioacetate-17-valerate]; 0.24

Let us move to another entry and its Systemic activity: Activity/ref. 21 act. hydro.
Report Systemic activity: Activity/ref. 21 act. hydro, nothing else, for this compound: CCCC(=O)O[C@]1(C(=O)CSC(=O)CC)CC[C@H]2[C@@H]3CCC4=CC(=O)CC[C@]4(C)[C@H]3[C@@H](O)C[C@@]21C
< 0.0096

###

# Protocol Text: Systemic (thymolytic) activity, thymus weight reduction after oral administration
# Type: in vivo, rat (Wistar)
# Test Settings: rat, in vivo; young Wistar rats, oral, daily for four consecutive days; 50% thymus weight reduction vs controls; read-out: Systemic activity ED50
Quantity Kind: ED50 at 96 h (mg/kg)
Hi! Could you send only the number? It should be in mg/kg, unit omitted.

Please report ED50 at 96 h for the following compound: CC(C)(C)C(=O)SCC(=O)[C@@]1(O)CC[C@H]2[C@@H]3CCC4=CC(=O)CC[C@]4(C)[C@H]3[C@@H](O)C[C@@]21C [Hydrocortisone-21-thiopivalate, hydrocortisone-21-thiopivalate]
3600

###

// values below are reported Systemic activity: Activity/ref. 21 act. hydro
# System: thymus weight
# Protocol Text: Systemic (thymolytic) activity, thymus weight reduction after oral administration
# Format: in vivo, rat (Wistar)
# Test Settings: rat, in vivo, 5760 min
Respond with the number and no other words.

CCCCC(=O)O[C@]1(C(=O)CSC(C)=O)CC[C@H]2[C@@H]3C[C@H](C)C4=CC(=O)C=C[C@]4(C)[C@H]3[C@@H](O)C[C@@]21C; 0.325
CCC(=O)O[C@]1(C(=O)CSC(=O)CC)[C@@H](C)C[C@H]2[C@@H]3CCC4=CC(=O)C=C[C@]4(C)[C@@]3(F)[C@@H](O)C[C@@]21C; 4.66

# context switch: different compound, same Systemic activity: Activity/ref. 21 act. hydro
Give me measured Systemic activity: Activity/ref. 21 act. hydro, please, for this compound: CCC(=O)O[C@]1(C(=O)CSC(C)=O)[C@@H](C)C[C@H]2[C@@H]3CCC4=CC(=O)C=C[C@]4(C)[C@@]3(F)[C@@H](O)C[C@@]21C
5.60
